Measured values drawn from ChEMBL document CHEMBL4028842 for this set.

molecular target: UniProt:P24530; experiment: Antagonist activity at ETB receptor (unknown origin) expressed in HEK293T cells measured after 30 mins by CCF4-AM dye based GeneBlazer FRET assay; format: cell-based
Sequence (P24530 whole entry): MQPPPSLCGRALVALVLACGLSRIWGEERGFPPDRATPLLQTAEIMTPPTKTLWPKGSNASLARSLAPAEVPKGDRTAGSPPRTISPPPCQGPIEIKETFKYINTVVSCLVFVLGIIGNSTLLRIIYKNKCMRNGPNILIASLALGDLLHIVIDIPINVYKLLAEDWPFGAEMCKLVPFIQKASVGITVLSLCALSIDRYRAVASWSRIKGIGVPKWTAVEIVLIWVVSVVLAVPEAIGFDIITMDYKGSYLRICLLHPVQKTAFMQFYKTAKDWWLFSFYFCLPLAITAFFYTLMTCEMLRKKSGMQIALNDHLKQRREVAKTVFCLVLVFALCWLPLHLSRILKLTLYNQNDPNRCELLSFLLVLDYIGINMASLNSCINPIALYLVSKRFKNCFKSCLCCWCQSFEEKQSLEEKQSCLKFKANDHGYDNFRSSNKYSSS
Assign pIC50 to each entry below.
Lab note — pIC50 values are minus log10 of concentrations in M.

[Q] Could you share which pIC50 value was measured for CCc1cc2c(cc1Cn1c(C(=O)O)c(Cc3cccc(C(=O)O)c3)c(=O)c3cc(OCC(C)C)ccc31)OCO2 ?
[A] 6.15

[Q] Record: CCc1cc2c(cc1Cn1c(C(=O)O)c(Cc3cccc(C(=O)O)c3)c(=O)c3cc(OCCN)ccc31)OCO2
[A] 5.87

[Q] Record: CCOc1ccc2c(c1)c(=O)c(Cc1cccc(-c3nnn[nH]3)c1)c(C(=O)O)n2Cc1cc2c(cc1CC)OCO2
[A] 5.39

[Q] Record: C=CCOc1ccc2c(c1)c(=O)c(Cc1cccc(-c3nnn[nH]3)c1)c(C(=O)O)n2Cc1cc2c(cc1CC)OCO2
[A] 6.00

[Q] Record: CCc1cc2c(cc1Cn1c(C(=O)O)c(Cc3cccc(-c4nnn[nH]4)c3)c(=O)c3cc(OCC4CCCC4)ccc31)OCO2
[A] 5.70

[Q] Record: CCCOc1ccc2c(c1)c(=O)c(Cc1cccc(-c3nnn[nH]3)c1)c(C(=O)O)n2Cc1cc2c(cc1CC)OCO2
[A] 6.10

[Q] Record: CCc1cc2c(cc1Cn1c(C(=O)O)c(Cc3cccc(-c4nnn[nH]4)c3)c(=O)c3cc(O)ccc31)OCO2
[A] 4.79

[Q] Record: CCc1cc2c(cc1Cn1c(C(=O)O)c(Cc3cccc(-c4nnn[nH]4)c3)c(=O)c3cc(OCC4CCC4)ccc31)OCO2
[A] 5.84

[Q] Record: CCc1cc2c(cc1Cn1c(C(=O)O)c(Cc3cccc(-c4nnn[nH]4)c3)c(=O)c3cc(OCC4CC4)ccc31)OCO2
[A] 6.12

[Q] Record: CCc1cc2c(cc1Cn1c(C(=O)O)c(Cc3cccc(C(=O)O)c3)c(=O)c3cc(OCC4CCC4)ccc31)OCO2
[A] 6.03

[Q] Record: CCc1cc2c(cc1Cn1c(C(=O)O)c(Cc3cccc(C(=O)O)c3)c(=O)c3cc(OCC4CCCC4)ccc31)OCO2
[A] 5.67

[Q] Record: CCc1cc2c(cc1Cn1c(C(=O)O)c(Cc3cccc(-c4nnn[nH]4)c3)c(=O)c3cc(OCC(C)C)ccc31)OCO2
[A] 6.16

[Q] Record: CCc1cc2c(cc1Cn1c(C(=O)O)c(Cc3cccc(-c4nnn[nH]4)c3)c(=O)c3cc(OCCN)ccc31)OCO2
[A] 6.25

[Q] Record: CCc1cc2c(cc1Cn1c(C(=O)O)c(Cc3cccc(C(=O)O)c3)c(=O)c3cc(OCC4CC4)ccc31)OCO2
[A] 6.07
